Target: human PCSK9 (proprotein convertase subtilisin kexin type 9) (human, UniProt Q8NBP7 31-692)
Sequence (Q8NBP7 31-692 limits assumed): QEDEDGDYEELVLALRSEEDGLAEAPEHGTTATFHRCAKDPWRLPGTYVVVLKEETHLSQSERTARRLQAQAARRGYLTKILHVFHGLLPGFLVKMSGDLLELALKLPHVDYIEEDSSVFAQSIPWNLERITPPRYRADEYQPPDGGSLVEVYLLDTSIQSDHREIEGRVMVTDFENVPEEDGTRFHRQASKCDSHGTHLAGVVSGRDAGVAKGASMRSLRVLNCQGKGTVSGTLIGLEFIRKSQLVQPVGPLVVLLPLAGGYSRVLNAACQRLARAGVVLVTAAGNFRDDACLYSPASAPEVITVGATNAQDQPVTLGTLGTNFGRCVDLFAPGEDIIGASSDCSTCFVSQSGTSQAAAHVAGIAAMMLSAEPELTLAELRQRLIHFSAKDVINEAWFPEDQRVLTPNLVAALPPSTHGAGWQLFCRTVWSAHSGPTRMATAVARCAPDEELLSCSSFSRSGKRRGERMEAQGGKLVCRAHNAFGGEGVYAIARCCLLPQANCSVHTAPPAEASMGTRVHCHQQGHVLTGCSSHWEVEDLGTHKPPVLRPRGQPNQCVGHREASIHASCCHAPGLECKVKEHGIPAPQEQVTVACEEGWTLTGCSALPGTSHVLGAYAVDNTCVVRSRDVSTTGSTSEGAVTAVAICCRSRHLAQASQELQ
Method: cell-based or functional assay
Value kind: EC50 (nM), PCSK9-induced LDLR depletion from HepG2 cell surface
Numeric answer only, unit nM assumed.

**Query** What value of EC50 (nM), PCSK9-induced LDLR depletion from HepG2 cell surface has been reported for the following binder? 2012A04 (designed binder) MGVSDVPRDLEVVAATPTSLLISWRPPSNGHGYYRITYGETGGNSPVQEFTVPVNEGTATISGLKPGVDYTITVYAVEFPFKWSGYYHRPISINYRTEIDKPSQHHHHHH
**Result** 7.78

**Query** Report EC50 (nM), PCSK9-induced LDLR depletion from HepG2 cell surface for 2011H05 (designed binder, also called ATI001091) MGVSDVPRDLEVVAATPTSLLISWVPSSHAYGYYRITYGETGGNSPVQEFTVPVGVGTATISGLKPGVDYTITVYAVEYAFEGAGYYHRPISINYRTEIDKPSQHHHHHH please.
**Result** 8.85

**Query** Which value of EC50 (nM), PCSK9-induced LDLR depletion from HepG2 cell surface has been reported for 2013E01 (designed binder, unmodified (not PEGylated) Adnectin; also called ATI001081) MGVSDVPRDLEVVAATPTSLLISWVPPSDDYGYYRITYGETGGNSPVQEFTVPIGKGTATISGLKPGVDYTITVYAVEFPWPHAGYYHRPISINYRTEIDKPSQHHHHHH in the records?
**Result** 12.4

**Query** What value of EC50 (nM), PCSK9-induced LDLR depletion from HepG2 cell surface has been recorded for this entry: 1784F03 (designed binder) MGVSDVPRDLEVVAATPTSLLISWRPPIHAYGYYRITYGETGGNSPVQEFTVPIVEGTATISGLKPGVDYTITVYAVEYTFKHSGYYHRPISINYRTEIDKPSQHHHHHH
**Result** 16
